- TEST METHOD NOTES: Solubility of CUR in water (inherent vs apparent with SNEDDS)
- Format: physicochemical
ATTRIBUTE MEASURED: solubility

Inquiry: Consider the molecule shown here: COc1cc(/C=C/C(=O)CC(=O)/C=C/c2ccc(O)c(OC)c2)ccc1O What is its recorded solubility?
Reply text: < 1 µg/mL

###

- TEST METHOD NOTES: CUR solubility in different vehicles (oils and surfactants)
- Assay type: physicochemical
- ASSAY CONDITIONS: 25 °C, oil or lipid, thermodynamic from solid; in Capryol 90
ATTRIBUTE MEASURED: solubility at 24 h (µg/mL)
Give just the number in µg/mL; leave the unit off.

Inquiry: Field request: solubility at 24 h | item: COc1cc(/C=C/C(=O)CC(=O)/C=C/c2ccc(O)c(OC)c2)ccc1O
Reply text: 8360

###

- TEST METHOD NOTES: CUR solubility in different vehicles (oils and surfactants)
- Format: physicochemical
- ASSAY CONDITIONS: 25 °C, aqueous with cosolvent or surfactant or cyclodextrin, thermodynamic from solid; in Tween 80
ATTRIBUTE MEASURED: solubility at 24 h (µg/mL)
Field format: number, assumed µg/mL, no unit text.

Inquiry: Look at this compound and give its reported solubility at 24 h. COc1cc(/C=C/C(=O)CC(=O)/C=C/c2ccc(O)c(OC)c2)ccc1O
Reply text: 6800

###

- TEST METHOD NOTES: Cell viability in HQ-induced oxidative stress (MTT)
- Type: cell-based, human
- ASSAY CONDITIONS: human, ARPE-19 cells; ARPE-19, 600 μM HQ alone
- Method: […] Cells were rinsed once using an FBS-free medium to remove any residual CUR-SNEDDS. Afterward, the oxidative stress-provoking agent, HQ (Sigma-Aldrich), was added. The cells were exposed to 600 μM HQ for 2 h to achieve 60–70% viability, as determined in the control samples [44]. Cell viability was assessed using the MTT assay. Cells were assessed with microscopy before the viability test to confirm the correlation of the absorbance readings from the MTT assay.
ATTRIBUTE MEASURED: viability at 2 h, 600 μM
Answer format: number, then unit.

Inquiry: Give its viability at 2 h, 600 μM value. Item: Oc1ccc(O)cc1 [HQ, hydroquinone]
Reply text: 70%
